- target.system: Jack Bean Urease (Canavalia ensiformis)
- Construct: purchased Sigma Aldrich
- assay.protocol: biochemical
- condition: jack bean urease, indophenol method, pH 8.2, mean SEM; read-out: IC50 (µM) urease inhibition
- Description: As structure of urease from different sources has common structural features therefore urease inhibition studies were carried out on jack bean urease. […] Urease enzyme inhibition investigation studies for all synthesized compounds were done by the method developed by Weatherburn (1967) named Indophenol against Jack Bean Urease. […] The measurement of increase in absorption at 625 nm was done after 50 min by help of a microplate reader (Molecular Device, USA). […]
assay.endpoint: IC50 (µM)
One number for each entry, in µM.

Provide IC50 value for the following compound: NC(N)=S [Thiourea, thiourea, reference compound] 22.8

====

I'd appreciate it if you could supply pIC50 values for the items below.
- target.system: Jack Bean Urease (Canavalia ensiformis, UniProt P07374)
- Construct: purchased Sigma Aldrich
- Sequence (P07374 whole entry, looked up): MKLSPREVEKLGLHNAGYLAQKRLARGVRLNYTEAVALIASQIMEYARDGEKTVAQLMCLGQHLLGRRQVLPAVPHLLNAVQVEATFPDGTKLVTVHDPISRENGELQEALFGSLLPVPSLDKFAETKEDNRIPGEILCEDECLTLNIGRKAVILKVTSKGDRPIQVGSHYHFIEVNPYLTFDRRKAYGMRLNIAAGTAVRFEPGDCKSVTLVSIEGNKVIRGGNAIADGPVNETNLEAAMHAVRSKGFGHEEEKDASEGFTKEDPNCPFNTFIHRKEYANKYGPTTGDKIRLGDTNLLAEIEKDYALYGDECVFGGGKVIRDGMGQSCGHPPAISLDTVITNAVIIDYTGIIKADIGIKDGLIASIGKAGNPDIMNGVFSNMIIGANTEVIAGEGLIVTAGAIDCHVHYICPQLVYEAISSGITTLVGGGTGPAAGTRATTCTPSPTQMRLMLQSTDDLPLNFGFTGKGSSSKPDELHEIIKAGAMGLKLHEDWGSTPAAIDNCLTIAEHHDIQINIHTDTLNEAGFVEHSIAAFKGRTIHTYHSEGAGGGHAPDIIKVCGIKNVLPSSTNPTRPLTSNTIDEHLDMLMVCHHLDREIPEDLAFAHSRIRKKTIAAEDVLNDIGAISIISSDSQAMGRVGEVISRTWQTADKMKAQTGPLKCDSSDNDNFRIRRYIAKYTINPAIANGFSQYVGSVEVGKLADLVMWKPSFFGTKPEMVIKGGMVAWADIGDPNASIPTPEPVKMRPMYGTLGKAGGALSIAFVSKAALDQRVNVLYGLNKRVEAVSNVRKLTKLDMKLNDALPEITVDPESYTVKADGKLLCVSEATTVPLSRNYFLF
- assay.protocol: biochemical
Give bare numbers, as −log10 of the molar value.

Guide cases for pIC50, answers given:
>>> value("Cc1ccccc1NC(=O)[C@]1(O)CC(O)C(O)[C@H](OC(=O)/C=C/c2ccc(O)c(O)c2)C1 (stereo partly drawn)")
4.67
>>> value("O=C(/C=C/c1ccc(O)c(O)c1)O[C@@H]1C[C@](O)(C(=O)Nc2ccc(Br)cc2)CC(O)C1O (stereo partly drawn)")
4.66

For each listed entry, give its pIC50.
1. O=C(/C=C/c1ccc(O)c(O)c1)O[C@@H]1C[C@](O)(C(=O)Nc2ccccc2F)CC(O)C1O (stereo partly drawn)
2. COc1ccc(NC(=O)[C@]2(O)CC(O)C(O)[C@H](OC(=O)/C=C/c3ccc(O)c(O)c3)C2)cc1 (stereo partly drawn)
3. O=C(/C=C/c1ccc(O)c(O)c1)O[C@@H]1C[C@](O)(C(=O)Nc2ccc(Cl)cc2[N+](=O)[O-])CC(O)C1O (stereo partly drawn)
4. COc1cccc(NC(=O)[C@]2(O)CC(O)C(O)[C@H](OC(=O)/C=C/c3ccc(O)c(O)c3)C2)c1 (stereo partly drawn)
5. O=C(/C=C/c1ccc(O)c(O)c1)O[C@@H]1C[C@](O)(C(=O)Nc2ccc([N+](=O)[O-])cc2Cl)CC(O)C1O (stereo partly drawn)
6. O=C(/C=C/c1ccc(O)c(O)c1)O[C@@H]1C[C@](O)(C(=O)O)C[C@@H](O)[C@H]1O [CHLG, chlorogenic acid, reference compound]

4.67
4.66
4.80
4.69
4.96
4.64

Provide pIC50 value for the following molecule: O=C(/C=C/c1ccc(O)c(O)c1)O[C@@H]1C[C@](O)(C(=O)Nc2cccc([N+](=O)[O-])c2)CC(O)C1O (stereo partly drawn) 4.86
